Values from patent US5840684A

System: Staphylococcus aureus 447
METHOD_NOTES: broth micro-dilution MIC
Format: cell-based

# COMPOUND, MIC (µg/mL)
rows = [
    ("CNC(CC(C)C)C(=O)NC1C(=O)NC(CC(N)=O)C(=O)NC2C(=O)NC3C(=O)NC(C(=O)NC(C(=O)O)c4cc(O)cc(O)c4-c4cc3ccc4O)C(OC3CC(C)(N)C(O)C(C)O3)c3ccc(c(Cl)c3)Oc3cc2cc(c3OC2OC(CO)C(O)C(O)C2OC2CC(C)(NCCCc3ccc(OC)cc3)C(O)C(C)O2)Oc2ccc(cc2Cl)C1O (centres unmarked)", 1),
    ("CNC(CC(C)C)C(=O)NC1C(=O)NC(CC(N)=O)C(=O)NC2C(=O)NC3C(=O)NC(C(=O)NC(C(=O)O)c4cc(O)cc(O)c4-c4cc3ccc4O)C(OC3CC(C)(N)C(O)C(C)O3)c3ccc(c(Cl)c3)Oc3cc2cc(c3OC2OC(CO)C(O)C(O)C2OC2CC(C)(NCc3ccc(OCc4ccccc4)c(OCc4ccccc4)c3)C(O)C(C)O2)Oc2ccc(cc2Cl)C1O (centres unmarked)", 4),
]
